Would you mind telling me the reported INH of each entry?
# Tested target: Multidrug and toxin extrusion protein 1 (Homo sapiens)
# Sequence (Q96FL8 whole entry): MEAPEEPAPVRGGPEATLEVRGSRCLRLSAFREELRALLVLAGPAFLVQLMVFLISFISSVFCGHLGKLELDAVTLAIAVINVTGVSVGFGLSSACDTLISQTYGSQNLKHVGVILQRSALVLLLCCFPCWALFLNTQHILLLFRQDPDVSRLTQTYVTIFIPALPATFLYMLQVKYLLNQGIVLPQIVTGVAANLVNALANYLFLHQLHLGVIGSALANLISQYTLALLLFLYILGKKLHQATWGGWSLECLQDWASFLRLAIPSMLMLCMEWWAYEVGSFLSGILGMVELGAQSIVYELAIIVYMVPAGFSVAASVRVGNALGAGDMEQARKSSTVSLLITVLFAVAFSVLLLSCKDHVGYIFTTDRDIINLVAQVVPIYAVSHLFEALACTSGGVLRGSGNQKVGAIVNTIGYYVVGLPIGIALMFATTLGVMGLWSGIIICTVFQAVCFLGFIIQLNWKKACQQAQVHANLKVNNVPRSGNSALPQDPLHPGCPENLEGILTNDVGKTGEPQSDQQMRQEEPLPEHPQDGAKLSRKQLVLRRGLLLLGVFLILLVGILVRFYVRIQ
# Experiment: Inhibition of human MATE1-mediated ASP+ uptake expressed in HEK293 cells at 20 uM after 1.5 mins by fluorescence assay
# Format: cell-based
# Assay setup: hek293, […], 20 µM
One number for each entry, in %.

// solved cases for INH follow
>>> value_measured("CN1C[C@H](C(=O)N[C@]2(C)O[C@@]3(O)[C@@H]4CCCN4C(=O)[C@H](Cc4ccccc4)N3C2=O)C[C@@H]2c3cccc4[nH]cc(c34)C[C@H]21 [DIHYDROERGOTAMINE]")
72
>>> value_measured("COc1cc2c3cc1Oc1cc(ccc1O)C[C@@H]1c4c(cc(OC)c(O)c4Oc4ccc(cc4)C[C@@H]3N(C)CC2)CC[N+]1(C)C")
95
>>> value_measured("CN1C2CCCC1CC(NC(=O)c1nn(C)c3ccccc13)C2 (configuration not stated)")
67
>>> value_measured("CN(C)C(=O)COC(=O)Cc1ccc(OC(=O)c2ccc(NC(=N)N)cc2)cc1")
77
>>> value_measured("CC[C@@]1(O)C(=O)OCc2c1cc1n(c2=O)Cc2cc3c(CN(C)C)c(O)ccc3nc2-1")
50

Each molecule below has a recorded value; state its INH.
1. [H]/N=C(\N/C(=N/[H])NCCCCCCNC(=N)NC(=N)Nc1ccc(Cl)cc1)Nc1ccc(Cl)cc1
2. O=c1[nH]c2ccccc2n1CCCN1CCC(n2c(=O)[nH]c3cc(Cl)ccc32)CC1

[86, 66]

###

# Tested target: Multidrug and toxin extrusion protein 1 (Homo sapiens, UniProt Q96FL8)
# Sequence (Q96FL8 whole entry): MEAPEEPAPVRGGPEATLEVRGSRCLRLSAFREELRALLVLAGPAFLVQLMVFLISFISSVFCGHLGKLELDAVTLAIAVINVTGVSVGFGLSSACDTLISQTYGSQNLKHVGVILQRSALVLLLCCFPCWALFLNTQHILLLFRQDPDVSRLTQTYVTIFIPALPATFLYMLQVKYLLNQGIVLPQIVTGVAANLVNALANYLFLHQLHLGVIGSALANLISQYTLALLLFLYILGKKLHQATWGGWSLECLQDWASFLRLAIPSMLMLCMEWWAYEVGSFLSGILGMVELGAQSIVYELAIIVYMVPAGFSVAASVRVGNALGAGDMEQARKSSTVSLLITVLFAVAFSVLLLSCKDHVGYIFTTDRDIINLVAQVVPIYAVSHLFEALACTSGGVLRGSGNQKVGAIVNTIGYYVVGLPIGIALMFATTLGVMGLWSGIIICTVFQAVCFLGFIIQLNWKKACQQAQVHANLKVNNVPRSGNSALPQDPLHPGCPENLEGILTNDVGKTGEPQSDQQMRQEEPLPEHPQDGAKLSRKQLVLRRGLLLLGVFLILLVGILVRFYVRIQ
# Experiment: Inhibition of human MATE1-mediated ASP+ uptake expressed in HEK293 cells after 1.5 mins by fluorescence assay
# Type: cell-based
Would you mind telling me the reported pIC50 of each entry?
One number for each entry, as −log10 of the molar value.

>>> value_measured("COc1ccnc(C[S+]([O-])c2nc3ccc(OC(F)F)cc3[nH]2)c1OC (stereo unspecified)")
4.36
>>> value_measured("COc1ccc(CCN2CCC(Nc3nc4ccccc4n3Cc3ccc(F)cc3)CC2)cc1")
4.58
>>> value_measured("NC(N)=Nc1nc(CSCCC(N)=NS(N)(=O)=O)cs1")
6.12
>>> value_measured("CC[C@@]1(O)C(=O)OCc2c1cc1n(c2=O)Cc2cc3c(CN(C)C)c(O)ccc3nc2-1")
5.89
>>> value_measured("COc1ccccc1OCCNCC(O)COc1cccc2[nH]c3ccccc3c12 (stereo unspecified)")
4.03
>>> value_measured("COc1cc2c3cc1Oc1cc(ccc1O)C[C@@H]1c4c(cc(OC)c(O)c4Oc4ccc(cc4)C[C@@H]3N(C)CC2)CC[N+]1(C)C")
5.03
>>> value_measured("CCOC(=O)c1ccc(OC(=O)CCCCCNC(=N)N)cc1 [GABEXATE]")
6.30
>>> value_measured("C#C[C@]1(O)CC[C@H]2[C@@H]3CCc4cc(O)ccc4[C@H]3CC[C@@]21C")
4.68
>>> value_measured("CC(=O)S[C@@H]1CC2=CC(=O)CC[C@]2(C)[C@H]2CC[C@@]3(C)[C@@H](CC[C@@]34CCC(=O)O4)[C@H]12")
4.73
>>> value_measured("NC1=NCC2c3ccccc3Cc3ccccc3N12 (stereo unspecified) [EPINASTINE]")
5.96

Each compound below has a recorded value; state its pIC50.
1. CC(=O)O[C@H]1C[C@@H]2CC[C@@H]3[C@H](CC[C@@]4(C)[C@H]3C[C@H]([N+]3(C)CCCCC3)[C@@H]4OC(C)=O)[C@@]2(C)C[C@@H]1N1CCCCC1.[Br-] [VECURONIUM BROMIDE]
2. [H]/N=C(/N)c1ccc(NCc2nc3cc(C(=O)N(CCC(=O)O)c4ccccn4)ccc3n2C)cc1

1. 5.72
2. 5.09
